Target: DNA helicase (UniProt P0ACB1)
Sequence (P0ACB1 whole entry): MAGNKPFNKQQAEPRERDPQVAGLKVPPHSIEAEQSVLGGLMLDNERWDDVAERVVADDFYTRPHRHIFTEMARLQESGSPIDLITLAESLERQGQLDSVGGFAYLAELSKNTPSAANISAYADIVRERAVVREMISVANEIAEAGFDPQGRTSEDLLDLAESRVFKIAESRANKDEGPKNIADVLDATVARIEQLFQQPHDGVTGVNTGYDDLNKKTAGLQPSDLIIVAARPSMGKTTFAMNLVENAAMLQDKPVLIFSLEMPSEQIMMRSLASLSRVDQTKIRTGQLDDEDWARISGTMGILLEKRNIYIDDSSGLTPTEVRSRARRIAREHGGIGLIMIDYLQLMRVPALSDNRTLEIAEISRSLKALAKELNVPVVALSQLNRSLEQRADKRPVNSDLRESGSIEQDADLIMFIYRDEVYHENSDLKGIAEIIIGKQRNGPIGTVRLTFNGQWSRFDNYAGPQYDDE
Experiment: relative enzymatic activity vs untreated control (fraction); higher = less inhibition
Conditions: 100 µM; incubation time: 2 h at 37 C
measured parameter: relative enzymatic activity
One number for each entry.

Solved entries:
compound: CN[C@H]1C[C@@H](N)[C@H](O)[C@@H](O[C@@H]2O[C@H](CO)[C@H](O)[C@@H]3O[C@@]4(O[C@H]23)O[C@H]([C@@H](N)CO)[C@H](O)[C@H](O)[C@H]4O)[C@@H]1O
quantitative result: 0.571

compound: CCn1cc(C(=O)[O-])c(=O)c2cc3c(cc21)OCO3.[K+]
quantitative result: 0.576

compound: Oc1cc(Cl)ccc1Oc1ccc(Cl)cc1Cl
quantitative result: 0.187

Now look at this one.
Check the records and state relative enzymatic activity for CNC1C(O)C(OC2C(N)CC(N)C(OC3OC(C(C)O)C(O)C(O)C3N)C2O)OCC1(C)O (centres undefined)
0.447

----------
Kindly supply the reported relative enzymatic activity values for the records listed here.
Target: MurC (UniProt C4ZRI6)
Sequence (C4ZRI6 whole entry, looked up): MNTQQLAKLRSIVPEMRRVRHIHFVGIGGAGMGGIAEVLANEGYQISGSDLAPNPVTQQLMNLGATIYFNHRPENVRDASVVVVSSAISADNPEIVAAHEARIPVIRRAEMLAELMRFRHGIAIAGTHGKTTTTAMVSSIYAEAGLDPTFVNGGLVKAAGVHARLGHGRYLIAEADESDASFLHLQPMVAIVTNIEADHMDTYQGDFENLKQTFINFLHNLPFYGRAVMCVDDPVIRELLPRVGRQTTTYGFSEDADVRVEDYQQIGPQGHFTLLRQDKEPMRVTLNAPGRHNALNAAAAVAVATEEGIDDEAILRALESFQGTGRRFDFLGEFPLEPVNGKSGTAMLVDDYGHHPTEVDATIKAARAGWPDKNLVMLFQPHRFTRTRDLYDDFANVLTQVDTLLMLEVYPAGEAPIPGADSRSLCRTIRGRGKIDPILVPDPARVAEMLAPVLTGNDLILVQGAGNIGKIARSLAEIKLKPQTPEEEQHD
Assay: relative enzymatic activity vs untreated control (fraction); higher = less inhibition
Conditions: 100 µM; incubation time: 2 h at 37 C
Answers are plain numbers.

Solved entries:
molecule: CN(C)[C@@H]1C(=O)[C@@H](C(N)=O)C(=O)[C@@]2(O)C(=O)[C@H]3C(=O)c4c(O)ccc(Cl)c4[C@@](C)(O)[C@H]3C[C@@H]12
quantitative result: 1.08
--
molecule: CCCCCCCCCCCCCCCC[N+](C)(C)C.[Br-]
quantitative result: 0.492
--
molecule: CC(=O)Oc1ccc(Cl)c2cccnc12
quantitative result: 1.03
--
molecule: O=[N+]([O-])C(Br)(CO)CO
quantitative result: 1.11

Check the records and state relative enzymatic activity for CNC1C(O)C(OC2C(N)CC(N)C(OC3OC(C(C)O)C(O)C(O)C3N)C2O)OCC1(C)O (stereo not given)
1.03

----------
Target: DNA ligase (UniProt B1XA82)
Sequence (B1XA82 whole entry): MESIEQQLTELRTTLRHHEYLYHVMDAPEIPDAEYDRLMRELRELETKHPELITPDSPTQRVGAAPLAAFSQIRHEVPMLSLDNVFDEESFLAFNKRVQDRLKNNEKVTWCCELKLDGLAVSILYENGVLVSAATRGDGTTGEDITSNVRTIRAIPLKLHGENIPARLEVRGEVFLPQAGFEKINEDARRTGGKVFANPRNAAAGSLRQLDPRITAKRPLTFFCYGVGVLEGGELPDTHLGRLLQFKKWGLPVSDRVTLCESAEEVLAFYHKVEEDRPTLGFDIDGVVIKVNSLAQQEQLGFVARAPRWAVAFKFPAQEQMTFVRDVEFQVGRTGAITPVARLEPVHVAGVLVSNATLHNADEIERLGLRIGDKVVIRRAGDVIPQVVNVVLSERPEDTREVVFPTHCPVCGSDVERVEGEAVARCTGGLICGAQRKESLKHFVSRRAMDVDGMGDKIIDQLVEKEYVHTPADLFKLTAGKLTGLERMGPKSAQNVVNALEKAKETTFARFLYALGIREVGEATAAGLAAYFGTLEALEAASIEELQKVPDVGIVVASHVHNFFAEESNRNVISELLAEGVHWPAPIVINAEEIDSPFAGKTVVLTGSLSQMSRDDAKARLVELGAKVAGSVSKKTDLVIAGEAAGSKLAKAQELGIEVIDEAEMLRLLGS
Assay: relative enzymatic activity vs untreated control (fraction); higher = less inhibition
Details: 100 µM; incubation time: 2 h at 37 C
// label = TRUE if relative enzymatic activity is not less than 1, otherwise FALSE

Would you please look over these solved cases?
smiles text: CCCCCCCCCCCCCCCC[n+]1ccccc1
cat: FALSE

smiles text: CN(C)[C@@H]1C(=O)C(C(N)=O)=C(O)[C@@]2(O)C(O)=C3C(=O)c4c(O)cccc4[C@](C)(O)[C@H]3C[C@@H]12
cat: TRUE

smiles text: CN[C@H]1C[C@@H](N)[C@H](O)[C@@H](O[C@@H]2O[C@H](CO)[C@H](O)[C@@H]3O[C@@]4(O[C@H]23)O[C@H]([C@@H](N)CO)[C@H](O)[C@H](O)[C@H]4O)[C@@H]1O
cat: FALSE

smiles text: CC(=O)[O][Hg][c]1ccccc1
cat: TRUE

smiles text: CC(=O)Oc1ccc(Cl)c2cccnc12
cat: FALSE

smiles text: C[CH2][Hg][S]c1ccccc1C(=O)[O-].[Na+]
cat: TRUE

smiles text: CN(C)[C@@H]1C(=O)[C@@H](C(N)=O)C(=O)[C@@]2(O)C(=O)[C@H]3C(=O)c4c(O)ccc(Cl)c4[C@@](C)(O)[C@H]3C[C@@H]12
cat: FALSE

smiles text: Cn1ncnc2c(=O)n(C)c(=O)nc1-2
cat: TRUE

Attention now turns to another entry.
Quick check, relative enzymatic activity >= 1? `O=[N+]([O-])c1ccc(N(CCO)CCO)c2c1no[n+]2[O-]`
TRUE
